System: SNB-19 CNS
Assay: NCI-60 one-dose screen, 48 h (100 = growth as untreated, 0 = no growth, -100 = all killed)
Settings: 10 µM unless noted
Protocol: Growth inhibition of the SNB-19 human tumor cell line is measured as a screen for anti-cancer activity. Cells are grown in 96 well plates and exposed to the test compound for 48 hours. Compounds are tested at a single concentration, which is 10^-5 M for most compounds. The reported endpoint is percent growth (GI% or GIPRCNT), where numbers from 0 - 100% represent growth inhibition, and numbers from -100% - 0 represent cell death. For example, a value of 40 represents 60% growth inhibition. […]
The panel holds about 83,000 compounds, 20% with a hit somewhere; the sample as a whole holds those more often.
property.measured: growth (%)
Give the quantity in %, number only.

// worked examples, growth included
compound	tested.on	growth (%)
O=C(/C=C/C12c3ccccc3C(c3ccccc31)C1C(=O)NC(=O)C12)c1ccco1 (configuration not stated)	SNB-19 CNS	30.9
COc1ccc2[nH]cc(-c3nonc3-c3c[nH]c4ccc(Br)cc34)c2c1	SNB-19 CNS	62.9
CC(C)n1c2ccc(Br)cc2c2c3c(c4c5ccccc5ccc4c21)C(=O)NC3=O	SNB-19 CNS	102
CC(C)NS(=O)(=O)/N=C1\NC(=O)NC1=C(Cl)Cl	SNB-19 CNS	94.3

Ask: Observed growth on SNB-19 CNS for COc1ccc(C(=O)/C=C/c2ccccc2)cc1S(N)(=O)=O , please.
Result: 40

Ask: State its growth on SNB-19 CNS: COc1cc(/C=C/C(=O)N2CCN(C(=O)c3cc(OC)c(OC)c(OC)c3)CC2)ccc1OCCCOc1cc2c(cc1OC)C(=O)N1CCC[C@H]1C=N2
Result: 13.8

Ask: Request: growth, test system SNB-19 CNS, entry COc1ccc2c(O)c(/C=C3\N=Nc4ncccc43)oc2c1C[C@@H]1CCNC[C@H]1F
Result: 1.93

Ask: # get_value(readout= growth, system= SNB-19 CNS) for CCn1cc(Cc2cc(C(=O)Nc3cc4cc(OC)c(OC)cc4c(C)n3)ccc2Cl)cn1
Result: 44.7

====

The entries below come with measured growth values attached.
System: NCI-H460 lung
Assay: NCI-60 one-dose screen, 48 h (100 = growth as untreated, 0 = no growth, -100 = all killed)
Conditions: 10 µM unless noted
Compounds without any hit were thinned out: in the full panel of roughly 83,000, 20% have a hit.
Output spec: scalar in %, unitless text.

compound	units.label	growth
CCOC(=O)c1cnn(CC(C)O)c1NC(=O)NCc1ccccc1C(F)(F)F (centres undefined)	%	109
COc1ccc2c(c1)oc1c(C)c3c(c(C)c12)C(=O)N(CCOS(C)(=O)=O)C3=O	%	94
CCOC(=O)c1cn2ncnc(Oc3ccc(NC(=O)NC4CC4)c(Cl)c3)c2c1C	%	102
COc1ccc2c(c1)CC[C@@H]1[C@@H]2CC[C@]2(C)c3c(cc(C#N)c4c3sc3ccccc34)C[C@@H]12	%	115
CCOC(=O)c1c(NC(=O)c2ccccc2)sc2c3c(ccc12)OCN(C)C3	%	-67.9

Ask: State the recorded growth for this entry: CNCCCNc1nc2ccccc2c2c(=O)c3cc(Cl)ccc3sc12
Result: -70.5

Ask: Report growth for CN(C)/C(N)=N/N=C(\c1ccccc1)c1ccccn1 please.
Result: 101

Ask: Which growth is listed for CC(C)NS(=O)(=O)/N=C1\NC(=O)NC1=C(Cl)Cl ?
Result: 99.2

Ask: Request the reported growth associated with COc1cc(N2C(=O)[C@H](Cl)C2c2ccc(SC)cc2)cc(OC)c1OC (some centres undefined)
Result: 5.39

Ask: Need growth, item COc1nc(/C=C\Nc2ccc3c(c2)OCCOCCOCCOCCO3)nc(OC)n1
Result: 97.3

Ask: Recorded growth for Nc1nc(N(Cc2ccccc2)c2ccccc2)c2cn[nH]c2n1 , please?
Result: 75.8

Ask: Quick check: growth of O=[N+]([O-])c1ccccc1Nc1ccc2ccccc2c1 ?
Result: 84.4

Ask: I would be grateful if you could share the reported growth for OC1(c2ccccc2)c2ccccc2N(c2ccccc2)c2ccc(Cl)cc21 (centres undefined) .
Result: -48.4

Ask: Need growth, item C=C(C)[C@@H]1CC[C@]2(CO)CC[C@]3(C)[C@H](CC[C@@H]4[C@@](C)(CCCN)[C@H](C(=C)C)CC[C@]43C)[C@@H]12
Result: -93.8

====

System: A498 renal
Experiment: NCI-60 one-dose screen, 48 h
Conditions: 10 µM unless noted
About 83,000 compounds went through this panel and 20% of them were active in at least one assay; those are over-represented in the sample as a whole. The source made the active and inactive calls. Rule for the calls: active = growth percent below 10; inactive = the rest.
Select the correct class. Options are YES for active, NO for inactive and nothing else.

# example entries with known answers
compound	answer.label
COc1ccc2cc(C(=O)N3CCC([C@@H](C)C(=O)NCc4ccc5c(c4)OCO5)CC3)[nH]c2c1	NO
N=C(N)c1ccc(OCCSCCOc2ccc(C(=N)N)cc2)cc1	NO
CCN(CC)CCOc1ccc(Nc2ncc3cc(-c4c(Cl)cccc4Cl)c(=O)n(CCOC)c3n2)cc1	YES
Fc1cccc(-c2nc(-c3c[nH]c4ncccc34)cs2)c1	NO

Ask: Can you look up the reported call for C=CC(=O)Nc1cccc(Oc2nccc(Nc3nnc(-c4ccc(Br)cc4)s3)n2)c1 for me?
Result: NO

Ask: Which outcome was entered for the compound O=c1c2ccccc2n(C[C@H]2CO2)c2ccccc12 in this test?
Result: NO

Ask: Query: recorded result category for O=C(O)CC(C(=O)O)/C(=C\c1ccccc1)c1ccccc1 (configuration not stated) in this test
Result: NO

Ask: For CCCN(CCSSCCNc1nc(N(C)O)nc(N(C)O)n1)c1nc(N(C)O)nc(N(C)O)n1 , what call appears in the results of this test?
Result: NO

Ask: Recorded test outcome, item Nc1nc(N(Cc2ccccc2)c2ccccc2)c2cn[nH]c2n1
Result: NO

Ask: Per the assay record, what outcome was assigned to O=C1c2cccnc2C(=O)c2c1c(C(=O)OCCc1ccccn1)c1ccccn21 ?
Result: YES

Ask: Which outcome was assigned to CCOc1ccc(/C=C/C(=O)c2cccc(OCCCOc3cccc(C(=O)/C=C/c4ccc(OCC)cc4)c3)c2)cc1 in this test?
Result: NO

Ask: // return assay outcome for Cc1cc(C)c2c(c1)N(C)c1ncnc(-n3c(C)nc4cc(C)ccc43)c1CC2C (configuration not stated)
Result: YES

====

System: SNB-19 CNS
Test: NCI-60 one-dose screen, 48 h (100 = growth as untreated, 0 = no growth, -100 = all killed)
Conditions: 10 µM unless noted
The panel holds about 83,000 compounds, 20% with a hit somewhere; the sample as a whole holds those more often. Activity calls are given as the source filed them. Rule for the calls: active = growth percent below 10; inactive = the rest.
property.measured: growth

chem.smiles	growth
C/C=C1/CN(CCCCC)CC[C@H]1C(=O)c1cc2ccccc2[nH]1	96.7% (inactive)
O=C(Nc1cc(Cl)cc(Cl)c1)Oc1c(Cl)c(Cl)c(Cl)c(Cl)c1Cl	66.1% (inactive)
CCOC(=O)NCCCC(=O)NCCc1ccccc1	108% (inactive)
COc1ccc2cc(C(=O)N3CCC([C@@H](C)C(=O)NCc4ccc5c(c4)OCO5)CC3)[nH]c2c1	25.8% [50 µM] (inactive)
COCCn1cc(-c2csc(-c3c[nH]c4ccccc34)n2)c2cccnc21	65.5% (inactive)
Cc1ccc(NC(=O)c2cc3ccccc3cc2O)c(C)c1	105% (inactive)
CCOC(=O)C/C(=N\Nc1cc(=O)[nH]c2ccc(C)cc12)C(=O)OCC	97.8% (inactive)
CCN(CCNc1ccc(C)c2sc3cc(Cl)ccc3c(=O)c12)CC(C)(C)O	71% (inactive)

Ask: // map COc1ccc(CNc2ccc3nc(NC(=O)CN4CCCCCC4)sc3c2)cc1 to recorded growth (system: SNB-19 CNS)
Result: 96.1% (inactive)

Ask: Could you share what growth was measured for NS(=O)(=O)c1ccc(C(=O)N=Nc2c(O)[nH]c3ccc(Cl)cc23)cc1 , tested on SNB-19 CNS?
Result: 91.3% (inactive)

Ask: Fill in the recorded growth for this compound, with SNB-19 CNS as test system: O=C1C=C(SCCO)C(=O)c2ccccc21
Result: 15% (inactive)

Ask: Observed growth on SNB-19 CNS for Cc1ccc(C)c2c1sc1nc(N3CCOCC3)c(C#N)c(=O)n12 , please.
Result: 96.3% (inactive)

====

System: SK-MEL-5 melanoma
Test: NCI-60 one-dose screen, 48 h (100 = growth as untreated, 0 = no growth, -100 = all killed)
Conditions: 10 µM unless noted
Compounds without any hit were thinned out: in the full panel of roughly 83,000, 20% have a hit.
# label = MET if growth < 90% else NOT MET

Example entries and their recorded answers appear below.
compound	tested.on	answer.label
COc1cc2c3c(c4c5ccccc5[nH]c4c2c(OC)c1OC)C(=O)N(CCN1CCCCC1)C3=O	SK-MEL-5 melanoma	MET
O=C(/C=C/c1cn(-c2ccccc2)nc1-c1ccccc1)CCC(=O)NO	SK-MEL-5 melanoma	NOT MET

Ask: Given the entry O=C1C=C(SCCO)C(=O)c2ccccc21 , would its reported growth be below 90%?
Result: MET
